experiment: Permeability across basolateral to apical side in human Caco-2 cells; assay type: ADME, cell-based; conditions: read-out: permeability
Quantity Name: Papp B→A

Compound String: CC(=O)c1c(O)c(C)c(O)c2c1OC1=CC(=O)c3c(n[nH]c3C)[C@@]12C
Papp B→A: 1.6 ×10⁻⁶ cm/s

API: the following record is the query input.
stdin: Looking for the measured Papp B→A of CC(=O)c1c(O)c(C)c(O)c2c1OC1=Cc3onc(C)c3C(=O)[C@@]12C , can you help?
stdout: 0.2 ×10⁻⁶ cm/s

###

assay: Permeability across apical to basolateral side in human Caco-2 cells; assay type: ADME, cell-based; details: read-out: permeability
I'd appreciate it if you could supply Papp A→B values for the items below.
One number for each entry, in ×10⁻⁶ cm/s.

I have 2 compounds here; please give me Papp A→B for each one.
1. CC(=O)c1c(O)c(C)c(O)c2c1OC1=Cc3onc(C)c3C(=O)[C@@]12C
2. CC(=O)c1c(O)c(C)c(O)c2c1OC1=CC(=O)c3c(n[nH]c3C)[C@@]12C

stdout:
[2.2, 11.3]

###

test system: HeLa; experiment: Antiproliferative activity against human HeLa cells assessed as reduction in cell viability measured at 24 hrs by MTT assay; format: functional, cell-based
pIC50: −log10 of the molar value.
I'd appreciate it if you could supply pIC50 values for the items below.

Please review the following examples before continuing.
Molecule: CC(=O)c1c(O)c(C)c(O)c2c1OC1=Cc3c(c(C)nn3C(C)(C)C)C(=O)[C@@]12C
pIC50: < 4.82
//
Molecule: CC(=O)c1c(O)c(C)c(O)c2c1OC1=Cc3c(c(C)nn3-c3ccccn3)C(=O)[C@@]12C
pIC50: < 4.82
//
Molecule: CC(=O)c1c(O)c(C)c(O)c2c1OC1=Cc3c(c(C)nn3CCO)C(=O)[C@@]12C
pIC50: < 4.82
//
Molecule: CC(=O)c1c(O)c(C)c(O)c2c1OC1=Cc3[nH]nc(C)c3C(=O)[C@@]12C
pIC50: 5.87
//
Molecule: CC(=O)c1c(O)c(C)c(O)c2c1O[C@@H]1Cc3n[nH]c(C)c3C(=O)[C@]21C
pIC50: < 4.82

I have 8 molecules here; please give me pIC50 for each one.
1. COc1cccc2c1C(=O)c1c(O)c3c(c(O)c1C2=O)C[C@@](O)(C(=O)CO)C[C@@H]3O[C@H]1C[C@H](N)[C@H](O)[C@H](C)O1
2. CC(=O)c1c(O)c(C)c(O)c2c1OC1=CC(=O)c3c(nn(C)c3C)[C@@]12C
3. CC(=O)c1c(O)c(C)c(O)c2c1OC1=CC(=O)c3c(C)nn(C)c3[C@@]12C
4. CC(=O)c1c(O)c(C)c(O)c2c1OC1=Cc3c(c(C)nn3CCBr)C(=O)[C@@]12C
5. CC(=O)C1=C(O)C=C2Oc3c(C(C)=O)c(O)c(C)c(O)c3[C@@]2(C)C1=O [(+)-USNIC ACID]
6. CC(=O)c1c(O)c(C)c(O)c2c1OC1=Cc3onc(C)c3C(=O)[C@@]12C
7. CC(=O)c1c(O)c(C)c(O)c2c1OC1=CC(=O)c3c(n[nH]c3C)[C@@]12C
8. CC(=O)c1c(O)c(C)c(O)c2c1OC1=Cc3c(c(C)nn3C)C(=O)[C@@]12C

stdout:
1. 5.48
2. 6.03
3. < 4.82
4. < 4.82
5. < 4.82
6. 5.15
7. 5.72
8. < 4.82

I have 6 molecules here; please give me pIC50 for each one.
1. CC(=O)c1c(O)c(C)c(O)c2c1OC1=CC(O)=C(/C(C)=N/N(C)C)C(=O)[C@@]12C
2. CC(=O)c1c(O)c(C)c(O)c2c1OC1=CC(O)=C(/C(C)=N/N)C(=O)[C@@]12C
3. CC(=O)c1c(O)c(C)c(O)c2c1O[C@@H]1Cc3n[nH]c(C)c3[C@H](O)[C@]21C
4. CC(C)=N/N=C(\C)c1c(O)c(C)c(O)c2c1OC1=CC(=O)c3c(n[nH]c3C)[C@@]12C
5. CCn1nc(C)c2c1C=C1Oc3c(C(C)=O)c(O)c(C)c(O)c3[C@@]1(C)C2=O
6. CC(=O)c1c(O)c(C)c(O)c2c1OC1=CC(=O)c3c(C)noc3[C@@]12C

stdout:
< 4.82
< 4.82
< 4.82
< 4.82
< 4.82
< 4.82

###

Target: CYP2C8 (Homo sapiens, UniProt P10632)
Sequence (P10632 whole entry): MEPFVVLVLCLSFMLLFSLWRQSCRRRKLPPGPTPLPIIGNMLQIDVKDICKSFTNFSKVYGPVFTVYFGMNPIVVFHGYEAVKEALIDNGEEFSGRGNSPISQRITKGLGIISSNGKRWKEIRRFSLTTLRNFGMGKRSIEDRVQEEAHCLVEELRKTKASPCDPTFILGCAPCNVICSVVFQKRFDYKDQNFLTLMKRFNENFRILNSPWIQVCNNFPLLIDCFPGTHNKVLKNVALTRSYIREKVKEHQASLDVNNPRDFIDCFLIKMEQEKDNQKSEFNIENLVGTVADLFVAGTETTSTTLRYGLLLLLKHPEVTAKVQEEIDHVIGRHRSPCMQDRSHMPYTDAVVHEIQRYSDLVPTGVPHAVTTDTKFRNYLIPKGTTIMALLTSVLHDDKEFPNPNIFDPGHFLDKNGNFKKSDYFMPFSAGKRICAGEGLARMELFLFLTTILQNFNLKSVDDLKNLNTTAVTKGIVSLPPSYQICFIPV
Test: Inhibition of CYP2C8 in human liver microsomes at 10 uM relative to control
Format: ADME, Microsome
Quantity Name: inhibition at 10 µM (%)
One number for each entry, in %.

Compound String: CC(=O)c1c(O)c(C)c(O)c2c1OC1=Cc3onc(C)c3C(=O)[C@@]12C
Target Or System: CYP2C8 (Homo sapiens, UniProt P10632)
inhibition at 10 µM (%): 8.5

stdin: Looking for the measured inhibition at 10 µM of CC(=O)c1c(O)c(C)c(O)c2c1OC1=CC(=O)c3c(n[nH]c3C)[C@@]12C , can you help?
stdout: 52.6

###

experiment: Aqueous solubility of the compound in simulated gastric fluid; assay type: ADME
Quantity Name: solubility

Compound String: CC(=O)c1c(O)c(C)c(O)c2c1OC1=CC(=O)c3c(n[nH]c3C)[C@@]12C
solubility: > 200 µM

stdin: Looking for the measured solubility of CC(=O)c1c(O)c(C)c(O)c2c1OC1=Cc3onc(C)c3C(=O)[C@@]12C , can you help?
stdout: 37.6 µM

###

I'd appreciate it if you could supply fraction unbound values for the items below.
test: Plasma protein binding in human relative to control; assay type: ADME, cell-free; conditions: read-out: PPB (converted)
One number for each entry.

Please review the following examples before continuing.
Molecule: CC(=O)C1=C(O)C=C2Oc3c(C(C)=O)c(O)c(C)c(O)c3[C@@]2(C)C1=O [(+)-USNIC ACID]
fraction unbound: 0.0024
--
Molecule: CC(=O)c1c(O)c(C)c(O)c2c1OC1=Cc3onc(C)c3C(=O)[C@@]12C
fraction unbound: 0.06

API: the following record is the query input.
stdin: Looking for the measured fraction unbound of CC(=O)c1c(O)c(C)c(O)c2c1OC1=CC(=O)c3c(n[nH]c3C)[C@@]12C , can you help?
stdout: 0.04

###

molecular target: CYP2C9 (Homo sapiens, UniProt P11712); assay: Inhibition of CYP2C9 in human liver microsomes at 10 uM relative to control; assay type: ADME, Microsome
Sequence (P11712 whole entry): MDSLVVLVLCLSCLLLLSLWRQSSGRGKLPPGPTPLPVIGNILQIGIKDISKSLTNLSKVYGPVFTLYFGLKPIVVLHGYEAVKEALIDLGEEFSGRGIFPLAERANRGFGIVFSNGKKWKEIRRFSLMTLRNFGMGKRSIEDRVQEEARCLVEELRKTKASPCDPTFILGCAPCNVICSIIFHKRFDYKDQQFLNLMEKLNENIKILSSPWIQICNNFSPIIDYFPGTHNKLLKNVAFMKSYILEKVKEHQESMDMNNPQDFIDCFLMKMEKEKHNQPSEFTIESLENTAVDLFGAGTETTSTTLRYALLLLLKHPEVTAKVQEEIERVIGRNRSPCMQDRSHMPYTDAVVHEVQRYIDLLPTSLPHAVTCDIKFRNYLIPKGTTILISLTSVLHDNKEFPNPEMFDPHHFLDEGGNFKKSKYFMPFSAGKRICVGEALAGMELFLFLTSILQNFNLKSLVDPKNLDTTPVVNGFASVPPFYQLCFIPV
Quantity Name: inhibition at 10 µM (%)
Give bare numbers, in %.

stdin: Write down the reported inhibition at 10 µM of CC(=O)c1c(O)c(C)c(O)c2c1OC1=CC(=O)c3c(n[nH]c3C)[C@@]12C , test system: CYP2C9 (Homo sapiens, UniProt P11712).
stdout: 74.6

###

I'd appreciate it if you could supply inhibition at 10 µM values for the items below.
molecular target: CYP2C19 (Homo sapiens); experiment: Inhibition of CYP2C19 in human liver microsomes at 10 uM relative to control; type: ADME, Microsome
Sequence (P33261 whole entry): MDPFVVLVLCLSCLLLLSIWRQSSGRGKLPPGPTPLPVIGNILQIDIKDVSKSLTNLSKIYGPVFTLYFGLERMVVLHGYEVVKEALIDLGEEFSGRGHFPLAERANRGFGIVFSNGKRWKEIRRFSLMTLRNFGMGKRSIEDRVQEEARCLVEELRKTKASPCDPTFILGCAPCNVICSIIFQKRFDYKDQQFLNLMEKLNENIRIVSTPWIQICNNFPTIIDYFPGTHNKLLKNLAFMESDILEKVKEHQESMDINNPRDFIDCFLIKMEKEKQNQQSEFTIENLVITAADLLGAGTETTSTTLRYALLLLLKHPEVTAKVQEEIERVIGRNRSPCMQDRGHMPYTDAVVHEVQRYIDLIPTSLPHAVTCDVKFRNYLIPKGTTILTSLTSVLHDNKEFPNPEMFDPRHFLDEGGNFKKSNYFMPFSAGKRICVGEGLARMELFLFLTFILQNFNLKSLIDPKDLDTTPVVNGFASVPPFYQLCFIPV
Units required after the number.

I have 2 molecules here; please give me inhibition at 10 µM for each one.
1. CC(=O)c1c(O)c(C)c(O)c2c1OC1=Cc3onc(C)c3C(=O)[C@@]12C
2. CC(=O)c1c(O)c(C)c(O)c2c1OC1=CC(=O)c3c(n[nH]c3C)[C@@]12C

stdout:
1. 15.6%
2. 65.9%

###

I'd appreciate it if you could supply half-life values for the items below.
test: Half life in human liver microsomes; type: ADME, Microsome
Numbers only, in h.

Molecule: CC(=O)C1=C(O)C=C2Oc3c(C(C)=O)c(O)c(C)c(O)c3[C@@]2(C)C1=O [(+)-USNIC ACID]
half-life / h: 1.32

stdin: Looking for the measured half-life of CC(=O)c1c(O)c(C)c(O)c2c1OC1=Cc3onc(C)c3C(=O)[C@@]12C , can you help?
stdout: 0.383

Sourced from ChEMBL document CHEMBL5223157
